Source of measurements: patent US20040152904A1

For each record, check the reported melting point: if it is below 100 °C write MET, else write NOT MET.

INSERT INTO assay_data (compound, label) VALUES
  ('N#Cc1ccc(C2CCC(c3c(F)cccc3F)=N2)cc1 (centres unmarked)', 'MET'),
  ('N#Cc1ccc(-c2ccc(C3CCC(c4c(F)cccc4F)=N3)cc2)cc1 (centres unmarked)', 'NOT MET'),
  ('CC(C)(C)OC(=O)N1C(=O)CCC1c1ccc(-c2ccc(C#N)cc2)cc1 (centres unmarked)', 'NOT MET'),
  ('CC(C)(C)n1nnc(-c2ccc(-c3ccc(C4CCC(c5c(F)cccc5F)=N4)cc3)cc2)n1 (centres unmarked)', 'MET');

We now examine a further compound.
Task item: Lab note: confirm whether the reported melting point for this compound is below 100 °C, equality not counting. compound: N#Cc1ccc(C2CCC(=O)N2)cc1 (centres unmarked)
Reply: NOT MET
